Target: Carbonic anhydrase 13 (Homo sapiens)
Experiment: Activation of human carbonic anhydrase 13 by stopped flow assay
Conditions: filed as activator
List of KA values.
# output: bare number, implied unit µM

In the examples that follow, each entry is paired with its recorded KA.
>  <smiles-repr>
NCCc1c[nH]cn1

>  <KA, µM>
4.6

$$$$
>  <smiles-repr>
N[C@H](Cc1c[nH]c2ccccc12)C(=O)O

>  <KA, µM>
0.81

$$$$
>  <smiles-repr>
N[C@H](Cc1c[nH]cn1)C(=O)O

>  <KA, µM>
0.09

$$$$

# input for lookup
# KA measured on Carbonic anhydrase 13 (Homo sapiens) for item N[C@@H](Cc1c[nH]cn1)C(=O)O = 0.13
